system: RPMI-8226 leukemia; assay: NCI-60 one-dose screen, 48 h (100 = growth as untreated, 0 = no growth, -100 = all killed); details: 10 µM unless noted
About 83,000 compounds went through this panel and 20% of them were active in at least one assay; those are over-represented in the sample as a whole.
# thresholds on growth define classes: I: < 40%; II: ≥ 40% and < 80%; III: ≥ 80%

Example results:
COc1ncc(-c2ccc3nccc(C#CCN4CCN(S(C)(=O)=O)CC4)c3c2)cc1NS(=O)(=O)c1ccc(F)cc1F = I
COc1cc(OC)c2sc(-c3ccc(-n4cncc4-c4ccc(N)cc4)cc3)nc2c1 = II
COc1ccc(OC)c2c1[nH]c(=O)c1c3ccccc3cn21 = I
Nc1nc(N)c([N+](=O)[O-])c(=O)[nH]1 = III

Query: Using the reported growth, which band applies to CCCOc1ccc2c(c1)CC[C@@H]1[C@@H]2CC[C@@]2(C)[C@H]1CC[C@]2(C)O ?
Result: II

Query: Using the reported growth, which band applies to COc1ccc(/C=C(\C#N)c2ccccc2)cc1 ?
Result: III

Query: Using the reported growth, which band applies to CCOc1ccccc1C(=O)OCC(=O)Nc1cccc(S(=O)(=O)N(C)C)c1 ?
Result: III

====

Each entry below carries its reported growth.
system: NCI-H322M lung; experiment: NCI-60 one-dose screen, 48 h (100 = growth as untreated, 0 = no growth, -100 = all killed); details: 10 µM unless noted
This is part of a sample that, as a whole, favours compounds with a hit. Of some 83,000 tested, about 20% had one in any assay.
Use % as the unit, but write only the number.

Use these answered entries as a reference point.
Oc1ccccc1C=Nc1ccccc1N=Cc1ccccc1O.[Cu+2] = 51.1
NC(=O)c1ncn([C@@H]2O[C@H](CO)[C@@H](O)[C@H]2O)n1 = 88.3

Next up:
Query: Name the recorded growth of the item COc1ccc(-c2nn(-c3ccccc3)cc2/C=C2\SC(=S)N(CCc3ccc(O)cc3)C2=O)cc1 in your answer.
Result: 88.6

====

test system: OVCAR-4 ovarian; experiment: NCI-60 one-dose screen, 48 h (100 = growth as untreated, 0 = no growth, -100 = all killed); conditions: 10 µM unless noted
Compounds without any hit were thinned out: in the full panel of roughly 83,000, 20% have a hit.
Please use Condition met whenever growth is not below 60%, and Condition not met whenever it is.

Example results:
NC(=O)c1ccccc1NC(=O)c1ccccc1Cl = Condition met
COc1cc2c(cc1OCCCCCn1c(-c3ccc(OCc4ccccc4)cc3)nc3cc(N4CCOCC4)ccc31)N=C[C@@H]1CCCN1C2=O = Condition not met
COc1cc(/C=C/C(=O)N2CCN(C(=O)/C=C/c3ccccc3)CC2)cc(OC)c1OC = Condition met
O=NC1CC=CCC1c1ccccc1 (configuration not stated) = Condition met
CCCn1cnc2c1c(=O)n(CCCCC(C)=O)c(=O)n2C = Condition met
O=C(NN(C(=O)c1ccccc1)c1cccs1)c1ccccc1 = Condition met

Now take the following compound into account.
Query: Exam item: decide whether the reported growth for CCOc1cc(C(C)(C)C)ccc1C1=N[C@H](c2ccc(Cl)cc2)[C@H](c2ccc(Cl)cc2)N1C(=O)N1CCN(CC#Cc2cccc3c2CN([C@@H]2CCC(=O)NC2=O)C3=O)CC1 is at least 60%.
Result: Condition not met
